// provenance: patent US20230174642A1

# System name: T1, recombinant extracellular domain of hASIC1a (hASIC1a-ECD) (human, UniProt P78348 67-427, limits assumed)
# T1 construct: extracellular domain; ASIC1a is one splice isoform of it; also called trimeric ectodomain of hASIC1a
# T1 sequence (looked up): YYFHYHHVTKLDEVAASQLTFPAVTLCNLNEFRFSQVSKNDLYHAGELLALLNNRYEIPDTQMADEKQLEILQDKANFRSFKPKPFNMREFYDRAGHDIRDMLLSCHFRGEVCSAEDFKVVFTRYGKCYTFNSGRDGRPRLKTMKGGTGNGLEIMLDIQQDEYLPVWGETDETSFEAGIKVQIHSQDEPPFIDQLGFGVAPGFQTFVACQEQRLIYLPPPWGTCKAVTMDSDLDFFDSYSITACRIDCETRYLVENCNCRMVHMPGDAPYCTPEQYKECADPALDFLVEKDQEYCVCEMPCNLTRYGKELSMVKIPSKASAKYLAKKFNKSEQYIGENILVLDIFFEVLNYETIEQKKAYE
# Protocol summary: SPR, Biacore T200, hASIC1a-ECD immobilized, IgG1 as analyte
Provide the reported kon of each item.
Write down the numeric answer in M⁻¹ s⁻¹ and omit the unit.

Reported kon for ASC06-01-IgG1 (antibody, V domains shown, Full length IgG1) VH: QVQLQQSGGGLVQPGGSLRLSCAASGFTFSSYAMSWVRQAPGKGLEWVSAISGSGGSTYYADSVKGRFTISRDNSKNTLYLQMNSLRAEDTAVYYCAKDSYFGYSKGDWGQGTLVTVSS VL: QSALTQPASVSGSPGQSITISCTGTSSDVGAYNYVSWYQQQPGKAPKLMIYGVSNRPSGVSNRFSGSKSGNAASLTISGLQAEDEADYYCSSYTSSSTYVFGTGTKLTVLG : what is it?
9.7e+06

Ok, now ASC06-03-IgG1 (antibody, V domains shown, Full length IgG1) VH: QVQLQQSGGGLVQPGGSLRLSCAASGFTFSSYAMSWVRQAPGKGLEWVSAISGSGGSTYYADSVKGRFTISRDNSKNTLYLQMNSLRAEDTAVYYCAKDSFYGRAKGSWGQGTLVTVSS VL: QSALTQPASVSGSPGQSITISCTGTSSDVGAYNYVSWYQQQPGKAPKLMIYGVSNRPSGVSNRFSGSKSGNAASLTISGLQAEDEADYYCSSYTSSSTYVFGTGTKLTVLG
680000

Ok, now ASC06-IgG1 (antibody, V domains shown, Tested as full length IgG1; also called WT antibody ASC06-IgG1; parental ASC06-IgG1 antibody) VH: QVQLQQSGGGLVQPGGSLRLSCAASGFTFSSYAMSWVRQAPGKGLEWVSAISGSGGSTYYADSVKGRFTISRDNSKNTLYLQMNSLRAEDTAVYYCAKDSFYGYSKGDWGQGTLVTVSS VL: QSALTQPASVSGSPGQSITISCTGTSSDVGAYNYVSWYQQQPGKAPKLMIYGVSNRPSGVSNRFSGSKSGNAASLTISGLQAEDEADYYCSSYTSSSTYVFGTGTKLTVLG
4.7e+06

Ok, now ASC06-04-IgG1 (antibody, V domains shown, Full length IgG1) VH: QVQLQQSGGGLVQPGGSLRLSCAASGFTFSSYAMSWVRQAPGKGLEWVSAISGSGGSTYYADSVKGRFTISRDNSKNTLYLQMNSLRAEDTAVYYCAKDSFYGRAKGVWGQGTLVTVSS VL: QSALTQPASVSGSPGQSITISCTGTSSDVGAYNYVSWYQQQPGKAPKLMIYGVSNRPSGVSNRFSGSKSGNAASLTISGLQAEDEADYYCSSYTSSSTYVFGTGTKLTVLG
620000

Ok, now ASC06-02-IgG1 (antibody, V domains shown, Full length IgG1) VH: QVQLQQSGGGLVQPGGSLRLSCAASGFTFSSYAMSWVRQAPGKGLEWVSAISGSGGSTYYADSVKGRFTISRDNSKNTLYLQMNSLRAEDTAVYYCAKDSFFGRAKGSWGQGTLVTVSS VL: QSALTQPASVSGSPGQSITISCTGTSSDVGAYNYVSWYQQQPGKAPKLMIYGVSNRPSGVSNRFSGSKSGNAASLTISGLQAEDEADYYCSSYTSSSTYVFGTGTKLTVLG
1.3e+07
